Test system: M. abscessus (ATCC 19977)
Protocol text: Ex vivo efficacy in infected THP-1 macrophages
Type: cell-based, Mycobacterium abscessus
Experimental conditions: Mycobacteroides abscessus, ATCC19977; infected THP-1 macrophages, concentration for >90% inhibition; read-out: M. abscessus Ex Vivo Efficacy (>90% Inhibition µM)

- Compound: "CC[C@H]1OC(=O)[C@H](C)[C@@H](O[C@H]2C[C@@](C)(OC)[C@@H](O)[C@H](C)O2)[C@H](C)[C@@H](O[C@@H]2O[C@H](C)C[C@H](N(C)C)[C@H]2O)[C@](C)(OC)C[C@@H](C)C(=O)[C@H](C)[C@@H](O)[C@]1(C)O [Clarithromycin, reference compound]"
  IC90: "128 µM"
- Compound: "C=C(C)[C@@H]1CC[C@]2(C=NNC(=O)c3ccncc3)CC[C@]3(C)[C@H](CC[C@@H]4[C@@]5(C)CCCNC(C)(C)[C@@H]5CC[C@]43C)[C@@H]12"
  IC90: "> 128 µM"
- Compound: "C=C(C)[C@@H]1CC[C@]2(C)CC[C@]3(C)[C@H](CC[C@@H]4[C@@]5(C)CCCNC(C)(C)[C@@H]5CC[C@]43C)[C@@H]12"
  IC90: "> 128 µM"
- Compound: "CC1(C)CCC23CCC4(C)C(CCC5C6(C)CCCNC(C)(C)C6CCC54C)C2C1OC3 (stereo not drawn)"
  IC90: "> 128 µM"
- Compound: "CC(C)=C1CCC=C2CC[C@]3(C)[C@H](CC[C@@H]4[C@@]5(C)CCCNC(C)(C)[C@@H]5CC[C@]43C)[C@H]21"
  IC90: "> 128 µM"
- Compound: "C=C(C)[C@@H]1CC[C@]2(CO)CC[C@]3(C)[C@H](CC[C@@H]4[C@@]5(C)CCCNC(C)(C)[C@@H]5CC[C@]43C)[C@@H]12"
  IC90: "> 128 µM"
